tested_on: adenosine kinase of T. b. rhodesiense (TbrAK) (Trypanosoma brucei rhodesiense)
Sequence (Q584S0 1-345): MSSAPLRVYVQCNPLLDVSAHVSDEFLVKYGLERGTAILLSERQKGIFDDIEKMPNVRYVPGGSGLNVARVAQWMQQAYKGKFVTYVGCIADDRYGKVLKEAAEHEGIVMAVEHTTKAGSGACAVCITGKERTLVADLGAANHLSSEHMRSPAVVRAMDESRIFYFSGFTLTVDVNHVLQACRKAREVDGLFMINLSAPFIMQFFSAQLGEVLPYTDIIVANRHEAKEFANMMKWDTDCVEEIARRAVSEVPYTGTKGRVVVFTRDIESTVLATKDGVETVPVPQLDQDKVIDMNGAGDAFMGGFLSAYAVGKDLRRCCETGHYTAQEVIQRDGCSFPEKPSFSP
assay_explanation: Radiometric assay for EC50 determination (TbrAK hyperactivation)
Assay type: biochemical
condition_description: 12 µM [2-3H]adenosine, 167 µM ATP, 0.88 nM TbrAK, 37°C

- molecule: "c1ccc(Oc2ccc(-c3cc(N4CCOCC4)[nH]n3)cc2)cc1 [compound 1]"
  EC50 [nM]: 38

====

Tm of TbrAK values, listed per item
tested_on: adenosine kinase of T. b. rhodesiense (TbrAK) (Trypanosoma brucei rhodesiense)
assay_explanation: Thermal stability assay (CD spectroscopy) regarding TbrAK
Type: binding
condition_description: compound at 50 µM, 13 µM TbrAK

- test_smiles: "c1ccc(Oc2ccc(-c3cc(N4CCNCC4)[nH]n3)cc2)cc1"
  units_of_measure: "°C"
  Tm of TbrAK: 43.2
- test_smiles: "Nc1ccc(-n2nc(-c3ccc(Oc4ccccc4)cc3)cc2N2CCOCC2)cc1"
  units_of_measure: "°C"
  Tm of TbrAK: 42.8
- test_smiles: "Nc1ccc(Oc2ccc(-c3cc(N4CCOCC4)[nH]n3)cc2)cc1"
  units_of_measure: "°C"
  Tm of TbrAK: 45.9
- test_smiles: "c1ccc(Oc2ccc(-c3cc[nH]n3)cc2)cc1"
  units_of_measure: "°C"
  Tm of TbrAK: 43.4
- test_smiles: "c1ccc(Oc2ccc(-c3cc(N4CCOCC4)[nH]n3)cc2)cc1"
  units_of_measure: "°C"
  Tm of TbrAK: 47.9
